Tested on: RKO
Assay summary: Antiproliferative activity against human RKO cells assessed as reduction in cell viability incubated for 24 hrs
Format: functional, cell-based
Quick reference for IC50 among some compounds
Assay readout: IC50 (µM)

Compound string: O=Cc1c(-c2nc(NCCO)c3ccccc3n2)[nH]c2ccccc12
Measurement target: RKO
Units: µM
Censoring operator: >
Obs value: 10

Compound string: O=Cc1c(-c2nc(NC34CC5CC(CC(C5)C3)C4)c3ccccc3n2)[nH]c2ccccc12
Measurement target: RKO
Units: µM
Censoring operator: >
Obs value: 10

Compound string: Cc1ccc2[nH]c(-c3nc(NCCN(C)C)c4ccccc4n3)c(C=O)c2c1
Measurement target: RKO
Units: µM
Censoring operator: =
Obs value: 0.7

Compound string: O=Cc1c(-c2nc(NC(C3CC3)C3CC3)c3ccccc3n2)[nH]c2ccccc12
Measurement target: RKO
Units: µM
Censoring operator: =
Obs value: 6

Compound string: O=Cc1c(-c2nc3ccccc3c(=O)[nH]2)[nH]c2ccccc12
Measurement target: RKO
Units: µM
Censoring operator: >
Obs value: 10

Compound string: CCCS(=O)(=O)Nc1nc(-c2[nH]c3ccccc3c2C=O)nc2ccccc12
Measurement target: RKO
Units: µM
Censoring operator: >
Obs value: 10

Compound string: O=Cc1c(-c2nc(NCCCC(=O)O)c3ccccc3n2)[nH]c2ccccc12
Measurement target: RKO
Units: µM
Censoring operator: >
Obs value: 10

Compound string: O=Cc1c(-c2nc(NCC3CC3)c3ccccc3n2)[nH]c2ccccc12
Measurement target: RKO
Units: µM
Censoring operator: =
Obs value: 4.8

Compound string: Cc1ccc2[nH]c(-c3nc(NCCN4CCCC4)c4ccccc4n3)c(C=O)c2c1
Measurement target: RKO
Units: µM
Censoring operator: =
Obs value: 0.7

Compound string: O=Cc1c(-c2nc(NCC(F)F)c3ccccc3n2)[nH]c2ccccc12
Measurement target: RKO
Units: µM
Censoring operator: =
Obs value: 7.9
